- Tested on: pFGFR4 in MDA-MB-453 cells
- procedure_text: FGFR4 signaling, pFGFR4 (MDA); Western blot (Method A), MSD (Method B), ELISA (Method C)
- Assay type: cell-based
- test_settings: Homo sapiens, MDA-MB-453, MDA-MB-453 cells; Method B (MSD) for signaling EC50 determination
assay_endpoint: EC50

Exercise: Given the entry C=CC(=O)Nc1ccccc1Nc1ncc2c(n1)N(Cc1nccs1)C(=O)N(c1c(Cl)c(OC)cc(OC)c1Cl)C2 , what EC50 was observed with pFGFR4 in MDA-MB-453 cells?
Key: < 100 nM

Exercise: And what about the compound C=CC(=O)Nc1ccccc1Oc1ncc2c(n1)N(C)C(=O)N(c1c(Cl)c(OC)cc(OC)c1Cl)C2 ?
Key: 101 to 500 nM

Exercise: And what about the compound C=CC(=O)Nc1ccccc1Nc1ncc2nc(-c3cc(OC)cc(OC)c3)c(=O)n(C)c2n1 ?
Key: > 1000 nM

Exercise: And what about the compound C=CC(=O)Nc1cc(-c2nccs2)ccc1Nc1ncc2c(n1)N(C)C(=O)N(c1cc(OC)cc(OC)c1)C2 ?
Key: 101 to 500 nM

Exercise: And what about the compound C=CC(=O)NC1CCCCC1Nc1ncc2c(n1)N(C1CCCNC1)C(=O)N(c1cc(OC)cc(OC)c1)C2 (racemic) ?
Key: > 1000 nM

Exercise: And what about the compound C=CC(=O)Nc1ccccc1Nc1ncc2c(n1)N(CC)C(=O)N(CC)C2 ?
Key: > 1000 nM

Exercise: And what about the compound C=CC(=O)N[C@H]1CCCC[C@H]1Nc1ncc2c(n1)N(Cc1nccs1)C(=O)N(c1c(Cl)c(OC)cc(OC)c1Cl)C2 ?
Key: 101 to 500 nM

###

- Tested on: pFGFR4 in MDA-MB-453 cells
- procedure_text: FGFR4 signaling, pFGFR4 (MDA); Western blot (Method A), MSD (Method B), ELISA (Method C)
- Type: cell-based
- test_settings: Homo sapiens, MDA-MB-453, MDA-MB-453 cells; Method B (MSD) for signaling EC50 determination
assay_endpoint: EC50

Exercise: Given the compound C=CC(=O)Nc1cc(CN2CCN(CC)CC2)ccc1Nc1ncc2c(n1)N(C)C(=O)N(c1cc(OC)cc(OC)c1)C2 , what is its reported EC50?
Key: 101 to 500 nM

Exercise: And what about the compound C=CC(=O)NC1CCCCC1Nc1ncc2c(n1)N(CCF)C(=O)N(c1cc(OC)cc(OC)c1Cl)C2 (racemic) ?
Key: 501 to 999 nM

Exercise: And what about the compound C=CC(=O)NC1CCCCC1Nc1ncc2c(n1)N(C1CCCN(C(=O)OC(C)(C)C)C1)C(=O)N(c1cc(OC)cc(OC)c1)C2 (racemic) ?
Key: > 1000 nM

Exercise: And what about the compound C=CC(=O)NC1CCCCC1Nc1ncc2c(n1)N(CC(F)F)C(=O)N(c1cc(OC)cc(OC)c1Cl)C2 (racemic) ?
Key: 501 to 999 nM

###

- Tested on: pFGFR4 in MDA-MB-453 cells
- procedure_text: FGFR4 signaling, pFGFR4 (MDA); Western blot (Method A), MSD (Method B), ELISA (Method C)
- Type: cell-based
- test_settings: Homo sapiens, MDA-MB-453, MDA-MB-453 cells; Method B (MSD) for signaling EC50 determination
Kindly supply the reported EC50 values for the records listed here.

Exercise: Given the compound C=CC(=O)N[C@@H]1COC[C@@H]1Nc1ncc2c(n1)N(C)C(=O)N(c1c(Cl)c(OC)cc(OC)c1Cl)C2 , what is its reported EC50?
Key: 101 to 500 nM

Exercise: And what about the compound CCC(=O)Nc1ccccc1Nc1ncc2c(n1)N(Cc1ccccc1)C(=O)N(c1c(Cl)c(OC)cc(OC)c1Cl)C2 ?
Key: 101 to 500 nM

Exercise: And what about the compound C=CC(=O)NC1CCCCC1Nc1ncc2c(n1)N(CC1CC1)C(=O)N(c1cc(OC)cc(OC)c1Cl)C2 (stereo not shown) ?
Key: 101 to 500 nM

Exercise: And what about the compound C=CC(=O)NC1CCCCC1Nc1ncc2c(n1)N(CCF)C(=O)N(c1c(Cl)c(OC)cc(OC)c1Cl)C2 (racemic) ?
Key: 101 to 500 nM

Where these numbers come from: patent US10774052B2
